The following molecules are shown together with reported cytotoxicity at 3 days, 5 μM values.
Test: HepG2 cell viability by MTS
Format: cell-based
Details: human; 5 μM, HepG2 cells, 3 days, DMEM without FBS, MTS; read-out: Average Viability (% Inhibition, n = 3)
endpoint_label: cytotoxicity at 3 days, 5 μM (%)

>  <molecule>
CC(C)Cc1cc(-c2nc(-c3ccc(NS(=O)(=O)C(F)(F)F)cc3Cl)cs2)ccn1 [Compound 37]

>  <experimental_result>
94

$$$$
>  <molecule>
O=S(=O)(Nc1ccc(-c2csc(-c3csc4ccccc34)n2)c(Cl)c1)C(F)(F)F [Compound 90]

>  <experimental_result>
99

$$$$
>  <molecule>
COc1ccc(-c2nc(-c3ccc(NS(=O)(=O)C(F)(F)F)cc3Cl)cs2)cc1OC [Compound 79]

>  <experimental_result>
74

$$$$
>  <molecule>
O=S(=O)(Nc1ccc(-c2csc(-c3cncc4ccccc34)n2)c(Cl)c1)C(F)(F)F [Compound 75]

>  <experimental_result>
88

$$$$

* * *

Assay: PK parameters for representative compounds (i.v. and p.o.)
Conditions: in vivo, po; p.o. @ 10 mg/kg
Source text: Standard PK parameters were collected in Mouse and Dog for Compound #37 in mouse (FIG. 4A) and dog (FIG. 4B).
The following compounds are shown together with reported Cmax values.
endpoint_label: Cmax (µM)

>  <mol>
O=S(=O)(Nc1ccc(-c2csc(-c3ccc4c(c3)CCO4)n2)c(Cl)c1)C(F)(F)F

>  <experimental_result>
25.8

$$$$
>  <mol>
O=S(=O)(Nc1ccc(-c2csc(-c3cccc4ccccc34)n2)c(Cl)c1)C(F)(F)F

>  <experimental_result>
7.57

$$$$
>  <mol>
O=S(=O)(Nc1ccc(-c2csc(-c3ccnc(CCC(F)(F)F)c3)n2)c(Cl)c1)C(F)(F)F

>  <experimental_result>
32.1

$$$$
>  <mol>
O=S(=O)(Nc1ccc(-c2csc(-c3cccc4[nH]ccc34)n2)c(Cl)c1)C(F)(F)F

>  <experimental_result>
20.6

$$$$
>  <mol>
O=S(=O)(Nc1ccc(-c2csc(-c3ccnc(Cc4ccccc4)c3)n2)c(Cl)c1)C(F)(F)F

>  <experimental_result>
6.58

$$$$
>  <mol>
O=S(=O)(Nc1ccc(-c2csc(-c3ccnc(CC4CCCCC4)c3)n2)c(Cl)c1)C(F)(F)F

>  <experimental_result>
2.2

$$$$
>  <mol>
O=S(=O)(Nc1ccc(-c2csc(-c3cccc(N4CCCCC4)c3)n2)c(Cl)c1)C(F)(F)F

>  <experimental_result>
8.41

$$$$
>  <mol>
O=S(=O)(Nc1ccc(-c2csc(-c3ccnc(N4CCCCC4)c3)n2)c(Cl)c1)C(F)(F)F

>  <experimental_result>
0.45

$$$$

* * *

Test: HepG2 cell viability by MTS
Type: cell-based
Details: human; 20 μM, HepG2 cells, 3 days, DMEM without FBS, MTS; read-out: Average Viability (% Inhibition, n = 3)
Please use criterion met whenever cytotoxicity at 3 days, 20 μM is not below 70%, and criterion not met whenever it is.

>  <mol>
CCCc1cc(-c2nc(-c3ccc(NS(=O)(=O)C(F)(F)F)cc3)cs2)ccn1

>  <class_name>
criterion met

$$$$
>  <mol>
Nc1cc(-c2nc(-c3ccc(NS(=O)(=O)C(F)(F)F)cc3Cl)cs2)ccn1

>  <class_name>
criterion not met

$$$$
>  <mol>
CC(C)Cc1cc(-c2nc(-c3ccc(NS(=O)(=O)C(F)(F)F)cc3Cl)cs2)ccn1

>  <class_name>
criterion met

$$$$
>  <mol>
CS(=O)(=O)Nc1cc(-c2nc(-c3ccc(NS(=O)(=O)C(F)(F)F)cc3Cl)cs2)ccn1

>  <class_name>
criterion not met

$$$$
>  <mol>
COc1cc(-c2csc(-c3ccnc(C(C)(C)C)c3)n2)ccc1NS(=O)(=O)C(F)(F)F

>  <class_name>
criterion met

$$$$
>  <mol>
O=S(=O)(Nc1ccc(-c2csc(-c3ccnc(Cc4ccccc4)c3)n2)c(Cl)c1)C(F)(F)F

>  <class_name>
criterion met

$$$$
>  <mol>
O=S(=O)(Nc1ccc(-c2csc(-c3ccnc(NS(=O)(=O)C(F)(F)F)c3)n2)c(Cl)c1)C(F)(F)F

>  <class_name>
criterion not met

$$$$
>  <mol>
CCCc1cc(-c2nc(-c3cccc(NS(=O)(=O)C(F)(F)F)c3)cs2)ccn1

>  <class_name>
criterion met

$$$$
>  <mol>
CCCc1cc(-c2nc(-c3ccc(NS(=O)(=O)C(F)(F)F)c(O)c3)cs2)ccn1

>  <class_name>
criterion not met

$$$$
>  <mol>
COc1cc(-c2csc(-c3ccnc(CC(C)C)c3)n2)ccc1NS(=O)(=O)C(F)(F)F

>  <class_name>
criterion not met

$$$$
>  <mol>
O=S(=O)(Nc1ccc(-c2csc(-c3ccnc(CCC(F)(F)F)c3)n2)c(Cl)c1)C(F)(F)F

>  <class_name>
criterion met

$$$$
>  <mol>
O=C(c1ccc(-c2nc(-c3ccc(NS(=O)(=O)C(F)(F)F)cc3Cl)cs2)cc1)N1CCCCC1

>  <class_name>
criterion not met

$$$$
>  <mol>
CCCc1cc(-c2nc(-c3ccc(NS(=O)(=O)C(F)(F)F)cc3Cl)cs2)ccn1

>  <class_name>
criterion met

$$$$
